- Organism: Rattus norvegicus
- measurement-notes: Open TG-GATES - Regimen: Daily Repeat
- Assay type: toxicity, organism-based, Sprague-Dawley
- Design: regimen Daily Repeat, gender Male, age 6 weeks
- condition-notes: in vivo, po, 0 mg/kg, […], tissue Blood, route gavage, dose level Control, time 7 day
measure-name: WBC (x10_2/uL)
Give the quantity in x10_2/uL, number only.

Could you share which WBC value was measured for `O=[N+]([O-])c1ccc(O)c([N+](=O)[O-])c1` ?
101.8

Could you share which WBC value was measured for `C[C@H]1C(=O)O[C@@H]2CCN3CC=C(COC(=O)[C@](C)(O)[C@]1(C)O)[C@H]23` ?
108.8

Could you share which WBC value was measured for C[C@H]1O[C@H](O[C@H]2[C@H](O)[C@@H](O)[C@@H](O[C@H]3[C@H](O)[C@@H](O)C(O)O[C@@H]3CO)O[C@@H]2CO)[C@H](O)[C@@H](O)[C@@H]1N[C@H]1C=C(CO)[C@@H](O)[C@H](O)[C@H]1O (some centres undefined) ?
89.4

Could you share which WBC value was measured for Cc1cccc(C)c1OCC(C)N (centres undefined) ?
115.8

* * *

- Species: Rattus norvegicus
- measurement-notes: Open TG-GATES - Regimen: Daily Repeat
- Assay type: toxicity, organism-based, Sprague-Dawley
- Parameters: regimen Daily Repeat, gender Male, age 6 weeks
- condition-notes: in vivo, po, 0 mg/kg, […], tissue Plasma, route gavage, dose level Control, time 7 day
measure-name: ALT
Phrase the answer as number then unit, nothing more needed.

Could you share which ALT value was measured for C[C@H]1O[C@H](O[C@H]2[C@H](O)[C@@H](O)[C@@H](O[C@H]3[C@H](O)[C@@H](O)C(O)O[C@@H]3CO)O[C@@H]2CO)[C@H](O)[C@@H](O)[C@@H]1N[C@H]1C=C(CO)[C@@H](O)[C@H](O)[C@H]1O (some centres undefined) ?
38.4 IU/L

Could you share which ALT value was measured for `C=C(C)[C@H]1Cc2c(ccc3c2O[C@@H]2COc4cc(OC)c(OC)cc4[C@@H]2C3=O)O1` ?
35.2 IU/L

Could you share which ALT value was measured for CCOC(=O)C(C)(C)Oc1ccc(Cl)cc1 [CLOFIBRATE] ?
33.8 IU/L

Could you share which ALT value was measured for `O=C1CN(/N=C/c2ccc([N+](=O)[O-])o2)C(=O)N1` ?
32.8 IU/L

* * *

Assignment: determine reported Fbg for the given compounds.
- Organism: Rattus norvegicus
- measurement-notes: Open TG-GATES - Regimen: Single
- Format: toxicity, organism-based, Sprague-Dawley
- Design: regimen Single, gender Male, age 6 weeks
- condition-notes: in vivo, po, 0 mg/kg, 24 h, tissue Blood, route gavage, dose level Control
Phrase the answer as number then unit, nothing more needed.

Could you share which Fbg value was measured for O=[N+]([O-])c1ccc(O)c([N+](=O)[O-])c1 [2,4-DINITROPHENOL] ?
228.6 mg/dL

Could you share which Fbg value was measured for Cn1cc[nH]c1=S [METHIMAZOLE] ?
315 mg/dL

Could you share which Fbg value was measured for C[C@H]1C(=O)O[C@@H]2CCN3CC=C(COC(=O)[C@](C)(O)[C@]1(C)O)[C@H]23 [MONOCROTALINE] ?
299 mg/dL

Could you share which Fbg value was measured for Cc1cccc(C)c1OCC(C)N (stereo not drawn) [MEXILETINE] ?
304 mg/dL

Could you share which Fbg value was measured for OCCN1CCN(CCCN2c3ccccc3Sc3ccc(C(F)(F)F)cc32)CC1 [FLUPHENAZINE] ?
217.6 mg/dL

Could you share which Fbg value was measured for C=C(C)[C@H]1Cc2c(ccc3c2O[C@@H]2COc4cc(OC)c(OC)cc4[C@@H]2C3=O)O1 [ROTENONE] ?
220.6 mg/dL

Could you share which Fbg value was measured for C[C@H]1O[C@H](O[C@H]2[C@H](O)[C@@H](O)[C@@H](O[C@H]3[C@H](O)[C@@H](O)C(O)O[C@@H]3CO)O[C@@H]2CO)[C@H](O)[C@@H](O)[C@@H]1N[C@H]1C=C(CO)[C@@H](O)[C@H](O)[C@H]1O (stereo partly drawn) [ACARBOSE] ?
269.6 mg/dL

Could you share which Fbg value was measured for CCOC(=O)C(C)(C)Oc1ccc(Cl)cc1 [CLOFIBRATE] ?
230.2 mg/dL

* * *

Assignment: determine reported IP for the given compounds.
- Organism: Rattus norvegicus
- measurement-notes: Open TG-GATES - Regimen: Daily Repeat
- Assay type: toxicity, organism-based, Sprague-Dawley
- Set-up: regimen Daily Repeat, gender Male, age 6 weeks
- condition-notes: in vivo, po, 0 mg/kg, […], tissue Plasma, route gavage, dose level Control, time 7 day
Give the quantity in mg/dL, number only.

Could you share which IP value was measured for `C=C(C)[C@H]1Cc2c(ccc3c2O[C@@H]2COc4cc(OC)c(OC)cc4[C@@H]2C3=O)O1` ?
7.7

Could you share which IP value was measured for Cc1cccc(C)c1OCC(C)N (stereo not given) ?
7.5

Could you share which IP value was measured for `O=[N+]([O-])c1ccc(O)c([N+](=O)[O-])c1` ?
7.7

Could you share which IP value was measured for CCOC(=O)C(C)(C)Oc1ccc(Cl)cc1 [CLOFIBRATE] ?
7.2

Could you share which IP value was measured for `C[C@H]1C(=O)O[C@@H]2CCN3CC=C(COC(=O)[C@](C)(O)[C@]1(C)O)[C@H]23` ?
7

* * *

- Species: Rattus norvegicus
- measurement-notes: Open TG-GATES - Regimen: Daily Repeat
- Type: toxicity, organism-based, Sprague-Dawley
- Parameters: regimen Daily Repeat, gender Male, age 6 weeks
- condition-notes: in vivo, po, 0 mg/kg, […], tissue Plasma, route gavage, dose level Control, time 7 day
Assignment: determine reported Cl for the given compounds.
Give the quantity in meq/L, number only.

Could you share which Cl value was measured for O=C1CN(/N=C/c2ccc([N+](=O)[O-])o2)C(=O)N1 [NITROFURANTOIN] ?
101

Could you share which Cl value was measured for CCOC(=O)C(C)(C)Oc1ccc(Cl)cc1 [CLOFIBRATE] ?
102.2

Could you share which Cl value was measured for C[C@H]1C(=O)O[C@@H]2CCN3CC=C(COC(=O)[C@](C)(O)[C@]1(C)O)[C@H]23 [MONOCROTALINE] ?
105.4

Could you share which Cl value was measured for Cc1cccc(C)c1OCC(C)N (centres undefined) [MEXILETINE] ?
105

Could you share which Cl value was measured for C=C(C)[C@H]1Cc2c(ccc3c2O[C@@H]2COc4cc(OC)c(OC)cc4[C@@H]2C3=O)O1 [ROTENONE] ?
104.6

Could you share which Cl value was measured for Cn1cc[nH]c1=S [METHIMAZOLE] ?
107

Could you share which Cl value was measured for OCCN1CCN(CCCN2c3ccccc3Sc3ccc(C(F)(F)F)cc32)CC1 [FLUPHENAZINE] ?
106.2

Could you share which Cl value was measured for O=[N+]([O-])c1ccc(O)c([N+](=O)[O-])c1 [2,4-DINITROPHENOL] ?
105.8

Could you share which Cl value was measured for C[C@H]1O[C@H](O[C@H]2[C@H](O)[C@@H](O)[C@@H](O[C@H]3[C@H](O)[C@@H](O)C(O)O[C@@H]3CO)O[C@@H]2CO)[C@H](O)[C@@H](O)[C@@H]1N[C@H]1C=C(CO)[C@@H](O)[C@H](O)[C@H]1O (some centres undefined) [ACARBOSE] ?
103.6

* * *

Assignment: determine reported TERMINAL_BW for the given compounds.
- Organism: Rattus norvegicus
- measurement-notes: Open TG-GATES - Regimen: Single
- Format: toxicity, organism-based, Sprague-Dawley
- Parameters: regimen Single, gender Male, age 6 weeks
- condition-notes: in vivo, po, 0 mg/kg, 3 h, route gavage, dose level Control
Give the quantity in g, number only.

Could you share which TERMINAL_BW value was measured for `Cc1ccc2cc3c(ccc4ccccc43)c3c2c1CC3` ?
209.2

Could you share which TERMINAL_BW value was measured for `OCCN1CCN(CCCN2c3ccccc3Sc3ccc(C(F)(F)F)cc32)CC1` ?
199

Could you share which TERMINAL_BW value was measured for `O=[N+]([O-])c1ccc(O)c([N+](=O)[O-])c1` ?
200.9

Could you share which TERMINAL_BW value was measured for `C=C(C)[C@H]1Cc2c(ccc3c2O[C@@H]2COc4cc(OC)c(OC)cc4[C@@H]2C3=O)O1` ?
198.4

Could you share which TERMINAL_BW value was measured for C[C@H]1O[C@H](O[C@H]2[C@H](O)[C@@H](O)[C@@H](O[C@H]3[C@H](O)[C@@H](O)C(O)O[C@@H]3CO)O[C@@H]2CO)[C@H](O)[C@@H](O)[C@@H]1N[C@H]1C=C(CO)[C@@H](O)[C@H](O)[C@H]1O (some centres undefined) ?
196.9

Could you share which TERMINAL_BW value was measured for `Cn1cc[nH]c1=S` ?
207.3

Could you share which TERMINAL_BW value was measured for CCOC(=O)C(C)(C)Oc1ccc(Cl)cc1 [CLOFIBRATE] ?
228.9

Could you share which TERMINAL_BW value was measured for Cc1cccc(C)c1OCC(C)N (centres undefined) ?
222.3

Could you share which TERMINAL_BW value was measured for `C[C@H]1C(=O)O[C@@H]2CCN3CC=C(COC(=O)[C@](C)(O)[C@]1(C)O)[C@H]23` ?
217.7
